- Run description: Plasma stability in vitro, mouse plasma
- Assay conditions: CD-1 mice plasma, 2 μM, 37° C., 60 min; in % (unit assumed)
Parameter: Content of Tested Substance (n = 2)
Respond using a number only.

# get_value(readout='Content of Tested Substance (n = 2)', item= "COc1cc(OC)c2c(=O)[nH]c(-c3cc(C)c(OCCOC(=O)ONS(=O)(=O)c4ccc(C)o4)c(C)c3)nc2c1" )
0.0

Requested read-out: Content of Tested Substance (n = 2). Entry: "COc1cc(OC)c2c(=O)[nH]c(-c3cc(C)c(OCCO[N+](=O)[O-])c(C)c3)nc2c1"
99.7

Reported Content of Tested Substance (n = 2), molecule COc1cc(OC)c2c(=O)[nH]c(-c3cc(C)c(OCCOC(=O)CCC(CO[N+](=O)[O-])O[N+](=O)[O-])c(C)c3)nc2c1 (centres unmarked) : ____
1.7

I am curious: what Content of Tested Substance (n = 2) value has been reported for "COc1cc(OC)c2c(=O)[nH]c(-c3cc(C)c(OCCOC(=O)c4cccc(CO[N+](=O)[O-])c4)c(C)c3)nc2c1" ?
3.1

// query Content of Tested Substance (n = 2) value for entry "COc1cc(OC)c2c(=O)[nH]c(-c3cc(C)c(OCCOC(=O)ONS(=O)(=O)c4ccc(C)s4)c(C)c3)nc2c1"
0.0

---

Provide the reported Content of Tested Substance (n = 2) of each item.
- Run description: Plasma stability in vitro, mouse plasma
- Assay conditions: CD-1 mice plasma, 2 μM, 37° C., 120 min; in % (unit assumed)
I only need the number, thanks.

Which Content of Tested Substance (n = 2) value is on record for "COc1cc(OC)c2c(=O)[nH]c(-c3cc(C)c(OCCO[N+](=O)[O-])c(C)c3)nc2c1" ?
99.1

Reported Content of Tested Substance (n = 2), molecule "COc1cc(OC)c2c(=O)[nH]c(-c3cc(C)c(OCCOC(=O)c4cccc(CO[N+](=O)[O-])c4)c(C)c3)nc2c1" : ____
1.8

I have this molecule here, "COc1cc(OC)c2c(=O)[nH]c(-c3cc(C)c(OCCOC(=O)ONS(=O)(=O)c4ccc(C)s4)c(C)c3)nc2c1" , and I need its recorded Content of Tested Substance (n = 2).
0.0

Requested read-out: Content of Tested Substance (n = 2). Entry: "COc1cc(OC)c2c(=O)[nH]c(-c3cc(C)c(OCCOC(=O)ONS(=O)(=O)c4ccc(C)o4)c(C)c3)nc2c1"
0.3

Which value of Content of Tested Substance (n = 2) has been reported for COc1cc(OC)c2c(=O)[nH]c(-c3cc(C)c(OCCOC(=O)CCC(CO[N+](=O)[O-])O[N+](=O)[O-])c(C)c3)nc2c1 (centres unmarked) in the records?
0.3

---

- Tested on: db/db mice
- Run description: Serum NO and heart eNOS in db/db mice after oral gavage
- Assay type: in vivo
- Assay conditions: blank = 100, oral gavage 150 mg/kg (isosorbide mononitrate 5 mg/kg), 1 h after administration (H101: 2 h)
- Experimental: Experimental method: 25 eight-week-old db/db mice (strain: BKS.Cg−+Leprdb/+leprdb/JclSlac; grade: SPF; gender: male; source: Shanghai SLAC Laboratory Animal Co., Ltd.) were selected. 3 of them were selected as the blank administration control. […] The content of NO in the serum of the […] mice was determined by a total NO test kit (Beyotime). The content of NOS in the heart of the mice was determined with an NOS test kit (Beyotime). […]
Would you mind telling me the reported Serum NO of each entry?

Form field: reported Serum NO of O=[N+]([O-])O[C@@H]1CO[C@H]2[C@@H]1OC[C@@H]2O [Isosorbide Mononitrate, Isosorbide mononitrate, reference compound]
136%

# input molecule: COc1cc(OC)c2c(=O)[nH]c(-c3cc(C)c(OCCOC(=O)OC4COC5C(O[N+](=O)[O-])COC45)c(C)c3)nc2c1 (centres unmarked) ; wanted: its Serum NO
152%

Look up Serum NO: "COc1cc(OC)c2c(=O)[nH]c(-c3cc(C)c(OCCOC(=O)CCC(=O)ONS(=O)(=O)c4cccc(S(C)(=O)=O)c4)c(C)c3)nc2c1"
147%

Which Serum NO reading was recorded for the molecule COc1cc(OC)c2c(=O)[nH]c(-c3cc(C)c(OCCO)c(C)c3)nc2c1 [Compound H130, reference compound] ?
111%

Please look up its Serum NO: "COc1cc(OC)c2c(=O)[nH]c(-c3cc(C)c(OCCO[N+](=O)[O-])c(C)c3)nc2c1"
142%
